- Test system: CP247
- ASSAY INFO: qHTS profiling for inhibitors of Plasmodium falciparum proliferation (AID 504749); note: nearly all actives have a fitted effect of over 60% in size
- STATED CONDITIONS: P. falciparum in erythrocytes, SYBR Green DNA, 72 h; series mostly up to 28.7 µM
Results filed as inconclusive are left out. Activity calls are given as the source filed them. Calls come from the whole dose curve; as a rule, active = well fitted inhibition curve with a large enough effect; inconclusive = small, poorly fitted or top-dose-only effect; inactive = flat fitted curve, though single readings scatter.
Labels: active, inactive

COMPOUND	CLASSIFICATION
O=[n+]1ccn([O-])c2ccccc21	inactive
CN=C1C=CC(=C(c2ccc(N(C)C)cc2)c2ccc(N(C)C)cc2)C=C1	active
CC(C)(Oc1ccc(C2CCCc3ccccc32)cc1)C(=O)O (stereo unspecified)	inactive
Cc1ccccn1	inactive
NCC[C@H](O)C(=O)N[C@@H]1C[C@H](N)[C@@H](O[C@H]2O[C@H](CN)CC[C@H]2N)[C@H](O)[C@H]1O[C@H]1O[C@H](CO)[C@@H](O)[C@H](N)[C@H]1O	inactive
O=C1c2ccccc2CN2C(=O)c3ccccc3CN12	inactive
O=C(NNCNNC(=O)c1ccncc1)c1ccncc1	inactive
O=C(O)/C=C/C(=O)Nc1ccc(S(=O)(=O)Nc2nccs2)cc1	inactive
CC(O)CN(C)C (stereo unspecified)	inactive
CCCCC	inactive
ClC(Cl)Cl	inactive
COc1ccc(/C=C/C(=O)OCCC(C)C)cc1	inactive
NC(=O)Oc1ccc(Cc2ccccc2)cc1	inactive
CC(=O)Oc1cc(C(F)(F)F)ccc1C(=O)O	inactive
C[Se]CC[C@H](N)C(=O)O	inactive
O=P(O)(O)O	inactive
CCc1ncnc2cc(OC)c(OC)cc12	inactive
O=C(O)C1=C(CSc2nnnn2CS(=O)(=O)O)CS[C@@H]2[C@H](NC(=O)[C@H](O)c3ccccc3)C(=O)N12	inactive
CCCCCCCCCCCC(=O)OCC(O)CO (stereo unspecified)	inactive
CN1CCC(OC(=O)C(Oc2ccc(Cl)cc2)Oc2ccc(Cl)cc2)CC1	inactive
C[C@]12CC[C@@H]3c4ccc(OC(=O)c5ccccc5)cc4CC[C@H]3[C@@H]1CC[C@@H]2O	inactive
CCCCO	inactive
CCOC(=O)Cc1ccc(-c2ccccc2)cc1	inactive
CC(=O)Oc1cccc(C(=O)O)c1OC(C)=O	inactive
COc1ccc2c(c1)OC(C)(C)C(c1ccccc1)C2c1ccc(OCCN2CCCC2)cc1 (stereo unspecified)	active
CC12CCC(C1)C(C)(C)C2=O (stereo unspecified)	inactive

----------
- ASSAY INFO: S16 Schwann cell PMP22 intronic element firefly luciferase assay (AID 624032); note: nearly all actives have a fitted effect of over 30% in size
- STATED CONDITIONS: S16 rat Schwann cells, PMP22 element FLuc, 24 h; series mostly up to 57.5 µM
Results filed as inconclusive are left out. The source made the active and inactive calls. Calls follow the shape of the dose curve; as a rule, active = well fitted inhibition curve with a large enough effect; inconclusive = small, poorly fitted or top-dose-only effect; inactive = no such curve, though single readings can be large or run the other way.
Classes used: Y (active), N (inactive)

COMPOUND	CLASSIFICATION
O=C(O)Cc1nn(Cc2ccc(Br)cc2F)c(=O)c2ccccc12	N
CCCCC/C=C\C/C=C\C/C=C\CCCCC(=O)O	N
CNC(=O)c1c(I)c(C(=O)NCC(=O)Nc2c(I)c(C(=O)O)c(I)c(C(=O)NCCO)c2I)c(I)c(N(C)C(C)=O)c1I	N
CCCCO	N
CCN(CC)CCC(=O)N1c2ccccc2Sc2ccc(Cl)cc21	Y
Cc1ncc(COP(=O)(O)O)c(CN)c1O	N
O=C(c1cc2ccccc2o1)N1CCN(Cc2ccccc2)CC1	N
O=C(O)CCC(=O)c1ccc(-c2ccccc2)cc1	N
FC(F)(F)C(F)(F)C(F)(F)C(F)(F)C(F)(F)F	N
CCCCC(CC)CCC(CC(C)C)OS(=O)(=O)O (stereo unspecified)	N
Nc1nc(=O)n([C@@H]2CS[C@H](CO)O2)cc1F	N
O=C1c2ccccc2C(=O)C1c1ccc(F)cc1	N
O=P(O)(O)OC[C@H](O)CO	N
O=C(O)/C=C/c1ccccc1	N
CC[C@H]1OC(=O)[C@H](C)[C@@H](O[C@H]2C[C@@](C)(OC)[C@@H](O)[C@H](C)O2)C(C)[C@@H](O[C@@H]2O[C@H](C)C[C@H](N(C)C)[C@@H]2O)[C@](C)(OC)C[C@@H](C)C(=O)[C@H](C)[C@@H](O)[C@]1(C)O (stereo partly specified)	N
CC(C)CCC[C@@H](C)[C@H]1CC[C@H]2[C@@H]3CC[C@@H]4C[C@H](O)CC[C@]4(C)[C@H]3CC[C@]12C	N
C=Cc1ccc(S(=O)(=O)O)cc1	N
CC(CCc1ccc(O)cc1)NCC(O)c1ccc(O)cc1 (stereo unspecified)	Y
CC/C(=C(/CC)c1ccc(OP(=O)(O)O)cc1)c1ccc(OP(=O)(O)O)cc1	N
CCc1ncnc2cc(OC)c(OC)cc12	N
CC(=O)c1ccc2c(c1)N(CCCN1CCN(CCO)CC1)c1ccccc1S2	Y
CC(C)CCCC(C)NC(C)C (stereo unspecified)	N
CC/C=C\C/C=C\C/C=C\C/C=C\C/C=C\C/C=C\CCC(=O)O	N
COc1cc(S(C)=O)ccc1-c1nc2ncccc2[nH]1 (stereo unspecified)	N
CC(=O)[O][Al][O]C(C)=O	N
CC(CNC(=O)c1cccnc1)NC(=O)c1cccnc1 (stereo unspecified)	N
O=C1c2ccccc2C(=O)C1c1ccc(Cl)cc1	N
Cc1ncc(C[n+]2csc(CCOP(=O)(O)OP(=O)(O)O)c2C)c(N)n1	N
CC1C(=O)CC2C3(C)CCC2(C(C)C(=O)O)C(=O)C13 (stereo unspecified)	N
O=C(O)CCC/C=C\C[C@@H]1[C@@H](/C=C/[C@@H](O)COc2cccc(Cl)c2)[C@H](O)C[C@@H]1O	N
Cc1ccc(C(C)(C)c2ccc(C)cc2)cc1	N
CCCCC[C@H](O)/C=C/[C@@H]1[C@H]2C/C(=C/CCCC(=O)O)O[C@H]2C[C@H]1O	N
O=C1[O][Bi][O]c2ccccc21	N
O=C(O)C1=C(CSc2nnnn2CS(=O)(=O)O)CS[C@@H]2[C@H](NC(=O)[C@H](O)c3ccccc3)C(=O)N12	N
O=C(O)CCCC/C=C(\c1ccccc1)c1cccnc1	N
CCCCC(CC)COS(=O)(=O)O (stereo unspecified)	N
C=CCCCCCCCCC(=O)OC	N
CCCCCc1ccc(C)cc1O	N
OCC(O)CO	N
O=C(NNCS(=O)(=O)O)c1ccncc1	N
O=[n+]1ccn([O-])c2ccccc21	N
CCOc1ccc(S(=O)(=O)O)c2cccnc12	N
OC[C@H]1O[C@@H]2O[C@H]3[C@H](O)[C@@H](O)[C@@H](O[C@H]4[C@H](O)[C@@H](O)[C@@H](O[C@H]5[C@H](O)[C@@H](O)[C@@H](O[C@H]6[C@H](O)[C@@H](O)[C@@H](O[C@H]7[C@H](O)[C@@H](O)[C@@H](O[C@H]1[C@H](O)[C@H]2O)O[C@@H]7CO)O[C@@H]6CO)O[C@@H]5CO)O[C@@H]4CO)O[C@@H]3CO	N
CCN(CC)CCOC(=O)c1cccnc1	N
COc1ccc(C(=O)c2ccc(C)cc2)c(O)c1	N
CC(C)CCC[C@@H](C)[C@H]1CC[C@H]2[C@@H]3CC=C4C[C@@H](O)CC[C@]4(C)[C@H]3CC[C@]12C	N
